Experiment: Determination of drug solubility in aqueous and organic solvent;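 note: solid drug suspended at 50 mg/mL nominal in each solvent, vortexed and sonicated, then dissolved concentration in filtered supernatant quantified by HPLC against a calibration curve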
Format: physicochemical
Conditions: organic solvent or mixture, thermodynamic from solid; Table 3A; DMSO; read-out: Solubility DMSO
quantity: solubility

1. CCCCCCCCCCCCCCCCCC(=O)O[C@@H](C)C(=O)O[C@@H](C)C(=O)O[C@@H](C)C(=O)O[C@@H](C)C(=O)NS(=O)(=O)c1cc2c(s1)S(=O)(=O)N(CCCOC)CC2NCC (some centres unmarked) : > 50 mg/mL
2. CCN[C@H]1C[C@H](C)S(=O)(=O)c2sc(S(N)(=O)=O)cc21 [Dorzolamide, reference compound] : < 1 mg/mL
3. CC(=O)O[C@@H](C)C(=O)O[C@@H](C)C(=O)O[C@@H](C)C(=O)O[C@@H](C)C(=O)N1CCN=C1Nc1ccc2nccnc2c1Br : > 50 mg/mL
4. CC(=O)OC(C)C(=O)OC(C)C(=O)OC(C)C(=O)OC(C)C(=O)N1CCN(C(C)=O)C1=Nc1ccc2nccnc2c1Br (centres unmarked) [Compound 115-1, Brimonidine-acetyl PLA(n=4)-N-Acetate] : 100 mg/mL
5. CCN[C@H]1CN(CCCOC)S(=O)(=O)c2sc(S(N)(=O)=O)cc21 [Brinzolamide, reference compound] : > 50 mg/mL
6. CC(=O)O[C@H](C)C(=O)O[C@@H](CNC(C)(C)C)COc1nsnc1N1CCOCC1.O=C(O)/C=C\C(=O)O [Compound 44-2, Timolol-acetyl PLA (n=1) maleate] : > 50 mg/mL
7. CCCCCCCCCCCCCCCCCC(=O)O[C@@H](C)C(=O)O[C@@H](C)C(=O)O[C@@H](C)C(=O)O[C@@H](C)C(=O)N1CCN=C1Nc1ccc2nccnc2c1Br : > 50 mg/mL
8. CCN(CC)CCNC(=O)c1c(C)[nH]c(/C=C2\C(=O)Nc3ccc(N)cc32)c1C [5-Amino Sunitinib, reference compound] : > 50 mg/mL
9. CC(=O)O[C@@H](C)C(=O)O[C@@H](C)C(=O)O[C@@H](C)C(=O)N1CCN=C1Nc1ccc2nccnc2c1Br : > 50 mg/mL
10. CC(=O)O[C@@H](C)C(=O)O[C@@H](C)C(=O)O[C@@H](C)C(=O)O[C@@H](C)C(=O)O[C@@H](C)C(=O)O[C@@H](C)C(=O)O[C@@H](C)C(=O)O[C@@H](C)C(=O)N1CCN=C1Nc1ccc2nccnc2c1Br : > 50 mg/mL
11. CC(C)OC(=O)CCC/C=C\C[C@@H]1[C@@H](CC[C@@H](O)CCc2ccccc2)[C@H](O)C[C@@H]1O [Latanoprost, reference compound] : > 50 mg/mL
